# Test system: Adenosine receptor A1 (Homo sapiens)
# Procedure details: Displacement of [3H]R-PIA from recombinant human A1AR expressed in HEK293 cell membranes at 10 uM measured after 60 mins by liquid scintillation counting method relative to control
Endpoint label: inhibition
Your answer should be a number followed by the unit of measure.

Note to self: inhibition recorded for O[C@@H]1[C@H](O)[C@@H]2C[C@@H]2[C@H]1n1cnc2c(NCCc3cccc(F)c3)nc(C#Cc3ccc(Cl)s3)nc21 was 31%

Note to self: inhibition recorded for Oc1ccc(CCNc2nc(C#Cc3ccccc3)nc3c2ncn3[C@H]2[C@H](O)[C@H](O)[C@@H]3C[C@@H]32)cc1O was 28%

Note to self: inhibition recorded for COc1ccc(CCNc2nc(C#Cc3ccccc3)nc3c2ncn3[C@H]2[C@H](O)[C@H](O)[C@@H]3C[C@@H]32)cc1O was 49%

Note to self: inhibition recorded for O[C@@H]1[C@H](O)[C@@H]2C[C@@H]2[C@H]1n1cnc2c(NCCc3cccc(Cl)c3)nc(C#Cc3ccc(Cl)s3)nc21 was 39%

Note to self: inhibition recorded for COc1cc(CCNc2nc(C#Cc3cccc(F)c3)nc3c2ncn3[C@H]2[C@H](O)[C@H](O)[C@@H]3C[C@@H]32)ccc1O was 38%

Note to self: inhibition recorded for O[C@@H]1[C@H](O)[C@@H]2C[C@@H]2[C@H]1n1cnc2c(NCCc3ccc(F)c(F)c3)nc(C#Cc3ccc(Cl)s3)nc21 was 28%

Note to self: inhibition recorded for COc1cc(CCNc2nc(C#Cc3ccccc3)nc3c2ncn3[C@H]2[C@H](O)[C@H](O)[C@@H]3C[C@@H]32)ccc1O was 33%

====

pIC50: −log10 of the molar value.
Endpoint label: pIC50

Lab note: compound COc1cc(CCNc2nc(C#Cc3ccccc3)nc3c2ncn3[C@H]2[C@H](O)[C@H](O)[C@@H]3C[C@@H]32)ccc1O tested on Cytochrome P450 2C19 (Homo sapiens, UniProt P33261); recorded pIC50 was < 4.52

====

# Test system: Adenosine receptor A2a (Homo sapiens, UniProt P29274)
# Sequence (P29274 whole entry): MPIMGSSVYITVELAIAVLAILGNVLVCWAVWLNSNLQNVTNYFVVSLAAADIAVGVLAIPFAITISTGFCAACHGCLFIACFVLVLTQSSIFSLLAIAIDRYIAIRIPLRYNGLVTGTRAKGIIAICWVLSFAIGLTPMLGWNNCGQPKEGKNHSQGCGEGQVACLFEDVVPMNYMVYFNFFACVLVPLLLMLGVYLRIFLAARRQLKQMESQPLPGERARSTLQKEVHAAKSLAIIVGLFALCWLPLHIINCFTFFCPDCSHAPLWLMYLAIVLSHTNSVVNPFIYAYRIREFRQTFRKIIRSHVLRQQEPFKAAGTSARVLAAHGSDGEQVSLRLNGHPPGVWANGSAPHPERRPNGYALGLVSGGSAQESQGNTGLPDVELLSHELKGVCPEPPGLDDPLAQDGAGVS
# Procedure details: Displacement of [3H]CGS21680 from recombinant human A2AAR expressed in HEK293 cell membranes at 10 uM measured after 60 mins by liquid scintillation counting method relative to control
Please provide measured inhibition for the entries that follow.
Hi! Could you send only the number? It should be in %, unit omitted.

Lab note: compound COc1cc(CCNc2nc(C#Cc3cccnc3)nc3c2ncn3[C@H]2[C@H](O)[C@H](O)[C@@H]3C[C@@H]32)ccc1O tested on Adenosine receptor A2a (Homo sapiens, UniProt P29274); recorded inhibition was 39

Lab note: compound COc1cc(CCNc2nc(C#Cc3ccccc3)nc3c2ncn3[C@H]2[C@H](O)[C@H](O)[C@@H]3C[C@@H]32)ccc1O tested on Adenosine receptor A2a (Homo sapiens, UniProt P29274); recorded inhibition was 39

Lab note: compound Oc1ccc(CCNc2nc(C#Cc3ccccc3)nc3c2ncn3[C@H]2[C@H](O)[C@H](O)[C@@H]3C[C@@H]32)cc1F tested on Adenosine receptor A2a (Homo sapiens, UniProt P29274); recorded inhibition was 17

Lab note: compound Nc1ccc(CCNc2nc(C#Cc3ccccc3)nc3c2ncn3[C@H]2[C@H](O)[C@H](O)[C@@H]3C[C@@H]32)cc1 tested on Adenosine receptor A2a (Homo sapiens, UniProt P29274); recorded inhibition was 26

Lab note: compound COc1cc(CCNc2nc(C#Cc3ccc(Cl)s3)nc3c2ncn3[C@H]2[C@H](O)[C@H](O)[C@@H]3C[C@@H]32)ccc1O tested on Adenosine receptor A2a (Homo sapiens, UniProt P29274); recorded inhibition was 38

The reported numbers originate from ChEMBL document CHEMBL4402597.
